Form field: PBM E-score (one value per entry).
Biological target: Ybr033w (UniProt P38073)
Sequence: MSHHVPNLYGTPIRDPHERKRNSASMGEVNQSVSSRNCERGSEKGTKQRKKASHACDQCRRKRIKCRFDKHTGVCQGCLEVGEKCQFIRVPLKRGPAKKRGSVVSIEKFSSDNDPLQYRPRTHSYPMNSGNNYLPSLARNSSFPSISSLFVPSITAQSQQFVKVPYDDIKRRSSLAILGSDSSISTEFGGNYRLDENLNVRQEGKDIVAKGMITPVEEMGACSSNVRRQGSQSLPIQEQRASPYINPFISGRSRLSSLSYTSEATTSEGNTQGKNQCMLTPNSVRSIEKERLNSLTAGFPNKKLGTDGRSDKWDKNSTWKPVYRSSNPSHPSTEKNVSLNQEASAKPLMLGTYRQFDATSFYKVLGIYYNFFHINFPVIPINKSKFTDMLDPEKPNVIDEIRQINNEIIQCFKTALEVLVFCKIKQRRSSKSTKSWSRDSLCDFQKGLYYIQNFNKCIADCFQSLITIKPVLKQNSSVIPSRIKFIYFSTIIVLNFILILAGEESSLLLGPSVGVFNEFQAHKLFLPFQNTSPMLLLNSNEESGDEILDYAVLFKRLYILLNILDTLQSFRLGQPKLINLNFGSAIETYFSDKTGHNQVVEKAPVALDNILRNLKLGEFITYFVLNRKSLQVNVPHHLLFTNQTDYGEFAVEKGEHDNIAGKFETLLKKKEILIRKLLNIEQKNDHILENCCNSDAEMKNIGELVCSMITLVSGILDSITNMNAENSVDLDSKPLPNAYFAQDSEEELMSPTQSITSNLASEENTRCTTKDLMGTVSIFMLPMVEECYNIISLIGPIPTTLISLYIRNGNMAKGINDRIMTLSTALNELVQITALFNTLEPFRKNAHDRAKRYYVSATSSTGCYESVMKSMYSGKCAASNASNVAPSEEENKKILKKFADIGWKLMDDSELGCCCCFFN
Assay: PBM E-score (8-mer binding enrichment) (E-score (-0.5 to 0.5)); higher = stronger / more preferred TF binding
Settings: protein concentration: 200 nM; construct: GST-full length
The full ranking holds about 33,000 sequences; the median of “E-score (-0.5 to 0.5)” is about -0.012, and the highest 2% start at about 0.29. The list comes from a sample in which the highest values are over-represented; it also holds close analogues and randomly drawn sequences.
observed.property: PBM E-score

1. CTTTAAAA | 0.2
2. GAAATACA | 0.14
3. GTCAAGAA | 0.146
4. GGAAGAAC | 0.461
5. AACACTCA | 0.13
